Biological target: T1, P1R-DelNt (truncated human P1R deleted for residues 24-181) (human, UniProt Q03431 182-593)
T1 sequence (looked up): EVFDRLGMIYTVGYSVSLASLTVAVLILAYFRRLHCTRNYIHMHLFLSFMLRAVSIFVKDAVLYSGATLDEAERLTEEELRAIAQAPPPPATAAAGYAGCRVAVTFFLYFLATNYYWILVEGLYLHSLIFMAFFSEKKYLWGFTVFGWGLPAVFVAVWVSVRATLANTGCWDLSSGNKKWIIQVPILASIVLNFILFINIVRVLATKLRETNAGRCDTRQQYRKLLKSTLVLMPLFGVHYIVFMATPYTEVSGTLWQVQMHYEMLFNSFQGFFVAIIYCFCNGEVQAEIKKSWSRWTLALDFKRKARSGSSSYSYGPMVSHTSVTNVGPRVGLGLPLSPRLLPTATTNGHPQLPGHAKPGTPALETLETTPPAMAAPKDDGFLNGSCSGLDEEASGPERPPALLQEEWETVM
Assay: cell-based or functional assay
Non-standard residues stand in square brackets, D forms with d. No end group written: not given here. hArg = N=C(N)NCCCC[C@H](N)C(=O)O; Aib = CC(C)(N)C(=O)O
propertyName: cAMP Emax (%)
Number in %, nothing else.

[Aib]V[Aib]EIALMHA[hArg]AKW-NH2 (N-terminus assumed; SMILES CC[C@H](C)[C@H](NC(=O)[C@H](CCC(=O)O)NC(=O)C(C)(C)NC(=O)[C@@H](NC(=O)C(C)(C)N)C(C)C)C(=O)N[C@@H](C)C(=O)N[C@@H](CC(C)C)C(=O)N[C@@H](CCSC)C(=O)N[C@@H](Cc1c[nH]cn1)C(=O)N[C@@H](C)C(=O)N[C@@H](CCCCNC(=N)N)C(=O)N[C@@H](C)C(=O)N[C@@H](CCCCN)C(=O)N[C@@H](Cc1c[nH]c2ccccc12)C(N)=O) [[Aib^1,3, Ala^6,10]PTH(1-14)]	100

The record that follows has no cAMP Emax (%) shown yet.
Per the records, this binder ( [Aib]V[Aib]EIQLMHA[hArg]AKW-NH2 (N-terminus assumed; SMILES CC[C@H](C)[C@H](NC(=O)[C@H](CCC(=O)O)NC(=O)C(C)(C)NC(=O)[C@@H](NC(=O)C(C)(C)N)C(C)C)C(=O)N[C@@H](CCC(N)=O)C(=O)N[C@@H](CC(C)C)C(=O)N[C@@H](CCSC)C(=O)N[C@@H](Cc1c[nH]cn1)C(=O)N[C@@H](C)C(=O)N[C@@H](CCCCNC(=N)N)C(=O)N[C@@H](C)C(=O)N[C@@H](CCCCN)C(=O)N[C@@H](Cc1c[nH]c2ccccc12)C(N)=O) [[Aib^1,3, Ala^10]PTH(1-14)] ) has cAMP Emax (%) equal to 104
